// provenance: ChEMBL document CHEMBL1155906

target: Beta-1 adrenergic receptor (Homo sapiens); test: Agonist activity at adrenergic beta-1 receptor
Sequence (P08588 whole entry): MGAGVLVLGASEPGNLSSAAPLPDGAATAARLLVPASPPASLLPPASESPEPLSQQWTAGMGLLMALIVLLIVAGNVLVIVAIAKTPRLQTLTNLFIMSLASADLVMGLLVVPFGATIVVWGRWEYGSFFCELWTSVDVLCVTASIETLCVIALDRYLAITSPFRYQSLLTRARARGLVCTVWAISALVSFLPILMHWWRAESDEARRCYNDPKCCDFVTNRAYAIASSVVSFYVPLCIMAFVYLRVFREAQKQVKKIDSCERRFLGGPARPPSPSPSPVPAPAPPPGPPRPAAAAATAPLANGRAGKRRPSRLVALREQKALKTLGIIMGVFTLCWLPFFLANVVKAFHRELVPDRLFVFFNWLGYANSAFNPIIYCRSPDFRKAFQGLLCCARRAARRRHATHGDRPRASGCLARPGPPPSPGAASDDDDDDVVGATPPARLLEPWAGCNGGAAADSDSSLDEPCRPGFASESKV
MEASURED_QUANTITY: EC50

Quick one: EC50 for Fc1ccc(-c2noc(C3CCN(c4cnc5ccc(Cl)cc5c4)CC3)n2)c(Cl)c1 ? > 50 µM

###

biological target: Cannabinoid receptor 2 (Homo sapiens, UniProt P34972); experiment: Agonist activity at human CB2 receptor expressed in insect Sf9 cells assessed as effect on Eu-GTP binding
Sequence (P34972 whole entry): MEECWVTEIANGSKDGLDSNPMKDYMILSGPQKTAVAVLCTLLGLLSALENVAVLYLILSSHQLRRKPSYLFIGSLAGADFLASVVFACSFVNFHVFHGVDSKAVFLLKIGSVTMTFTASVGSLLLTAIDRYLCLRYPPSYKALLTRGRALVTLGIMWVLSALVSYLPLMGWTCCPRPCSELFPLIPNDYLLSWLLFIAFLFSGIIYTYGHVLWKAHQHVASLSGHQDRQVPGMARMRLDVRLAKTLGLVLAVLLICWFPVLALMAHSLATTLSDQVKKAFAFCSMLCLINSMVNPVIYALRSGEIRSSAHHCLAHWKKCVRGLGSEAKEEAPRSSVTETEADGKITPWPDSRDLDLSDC
MEASURED_QUANTITY: log10 EC50 (log10 of the value in nM)
Answers are given as log10 of EC50 in nM.

Record excerpt, results attached:
Fc1ccc(-c2noc([C@@H]3CCC[C@H]3Nc3cnc4ccccc4c3)n2)c(Cl)c1 (racemic): 2.67
c1ccc2ncc(N3CCC(c4nc(-c5ccncc5)no4)CC3)cc2c1: 2.50
Clc1ccc(-c2noc(C3CCN(c4cnc5ccccc5c4)CC3)n2)cc1: 3.25
Fc1ccc(-c2noc(C3CCN(c4cnc5c(C(F)(F)F)cccc5c4)CC3)n2)c(Cl)c1: 1.20

Would you kindly look at the next entry?
What measured log10 EC50 goes with Fc1ccc(-c2noc(CCCNc3cnc4ccccc4c3)n2)c(Cl)c1 ? 1.04
